- measured-on: UniProt Q92769
- Sequence (Q92769 whole entry): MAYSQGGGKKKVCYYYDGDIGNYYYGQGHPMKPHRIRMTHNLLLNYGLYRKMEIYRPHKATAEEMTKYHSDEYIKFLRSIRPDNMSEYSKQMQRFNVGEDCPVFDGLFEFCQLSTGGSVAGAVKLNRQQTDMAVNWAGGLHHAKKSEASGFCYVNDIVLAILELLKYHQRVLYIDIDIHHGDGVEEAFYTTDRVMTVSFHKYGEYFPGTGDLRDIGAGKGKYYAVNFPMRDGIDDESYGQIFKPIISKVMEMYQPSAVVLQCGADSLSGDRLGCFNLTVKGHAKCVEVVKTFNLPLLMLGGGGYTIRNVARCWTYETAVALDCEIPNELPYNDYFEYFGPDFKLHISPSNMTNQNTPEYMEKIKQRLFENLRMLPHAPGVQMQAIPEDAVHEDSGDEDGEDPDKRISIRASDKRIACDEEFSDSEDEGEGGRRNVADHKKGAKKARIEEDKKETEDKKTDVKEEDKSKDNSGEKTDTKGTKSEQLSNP
- assay-summary: Inhibition of human recombinant HDAC2 using acetyllysine tripeptide coupled with 7-amino-4-methylcoumarin as substrate by fluorescence assay
Label true when IC50 is strictly below 6 nM; at or above that, label false.

Please review the entries below; each comes with its answer.
chemical-string	category-label
O=C(CCCCCC(=O)N/N=C/c1ccc(-c2ccccn2)cc1)NO	false
COc1ccc(Br)c(/C=N/NC(=O)CCCCCC(=O)NO)c1	true
O=C(CCCCCC(=O)N/N=C/c1ccc(-c2cncnc2)cc1)NO	false
O=C(CCCCCC(=O)N/N=C/c1ccc(-c2ccncc2)cc1)NO	false
O=C(CCCCCC(=O)N/N=C/c1ccc(-c2ccccc2)cc1)NO	true

Ask: Is it true that IC50 reported for "O=C(CCCCCC(=O)N/N=C/c1ccc(-c2cccnc2)cc1)NO" is less than 6 nM?
Result: false

Ask: Consider the compound "O=C(CCCCCCC(=O)N/N=C/c1ccc(-c2ccccc2)cc1)NO" . Is its IC50 strictly less than 6 nM?
Result: true

Ask: Determine whether this compound shows IC50 lower than 6 nM (ties excluded): "O=C(CCCCC(=O)N/N=C/c1ccc(-c2ccccc2)cc1)NO"
Result: false

Ask: Here's an entry: "Cc1ccccc1-c1ccc(/C=N/NC(=O)CCCCCC(=O)NO)cc1" . Is its IC50 below 6 nM?
Result: false

Ask: Does "COc1cc(O)cc(OC)c1/C=N/NC(=O)CCCCCC(=O)NO" have IC50 strictly under 6 nM?
Result: false

Ask: Consider the compound "O=C(CCCCCC(=O)N/N=C/c1ccc(-c2cccs2)cc1)NO" . Is its IC50 strictly less than 6 nM?
Result: false

---

- measured-on: Histone deacetylase 3 (Homo sapiens)
- Sequence (O15379 whole entry): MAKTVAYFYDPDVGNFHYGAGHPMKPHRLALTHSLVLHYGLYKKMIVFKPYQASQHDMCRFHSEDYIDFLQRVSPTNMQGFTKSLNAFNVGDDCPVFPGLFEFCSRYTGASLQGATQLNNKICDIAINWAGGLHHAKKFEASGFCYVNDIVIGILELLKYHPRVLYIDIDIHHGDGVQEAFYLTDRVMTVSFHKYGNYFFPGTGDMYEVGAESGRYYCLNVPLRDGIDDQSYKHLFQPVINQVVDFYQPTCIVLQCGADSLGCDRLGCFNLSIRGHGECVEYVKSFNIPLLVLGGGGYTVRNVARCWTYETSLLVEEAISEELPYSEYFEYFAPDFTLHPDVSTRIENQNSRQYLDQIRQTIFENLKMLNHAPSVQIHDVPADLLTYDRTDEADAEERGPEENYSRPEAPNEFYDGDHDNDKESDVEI
- assay-summary: Inhibition of human recombinant HDAC3 using acetyllysine tripeptide coupled with 7-amino-4-methylcoumarin as substrate by fluorescence assay
endpoint-name: IC50 (nM)
# unit: nM | format: bare number

Look over these answered cases.
chemical-string	IC50 (nM)
O=C(CCCCCC(=O)N/N=C/c1ccc(-c2cccs2)cc1)NO	1.6
O=C(CCCCCC(=O)N/N=C/c1ccc(-c2cccnc2)cc1)NO	0.8

Ask: Kindly state the measured IC50 obtained for "COc1cc(O)cc(OC)c1/C=N/NC(=O)CCCCCC(=O)NO" with Histone deacetylase 3 (Homo sapiens).
Result: 25.6

Ask: Report IC50 for "O=C(CCCCCC(=O)N/N=C/c1ccc(-c2ccccc2)cc1)NO" tested on Histone deacetylase 3 (Homo sapiens).
Result: 3.4

Ask: IC50 of "COc1ccc(Br)c(/C=N/NC(=O)CCCCCC(=O)NO)c1" on Histone deacetylase 3 (Homo sapiens)?
Result: 1.2

Ask: Recall the recorded IC50 for "Cc1ccccc1-c1ccc(/C=N/NC(=O)CCCCCC(=O)NO)cc1" with Histone deacetylase 3 (Homo sapiens) and state it.
Result: 5.4

Ask: Please tell me: IC50 of "O=C(CCCCCC(=O)N/N=C/c1ccc(-c2cncnc2)cc1)NO" , system Histone deacetylase 3 (Homo sapiens)?
Result: 2.4

Ask: Checklist item: IC50 tested on Histone deacetylase 3 (Homo sapiens), entry "O=C(CCCCCC(=O)N/N=C/c1ccc(-c2ccccn2)cc1)NO" , value?
Result: 1.4

Ask: Give the reported IC50 for "O=C(CCCCCCC(=O)N/N=C/c1ccc(-c2ccccc2)cc1)NO" (system: Histone deacetylase 3 (Homo sapiens)).
Result: 2

Ask: Test system Histone deacetylase 3 (Homo sapiens); read-out IC50; what value for "O=C(CCCCC(=O)N/N=C/c1ccc(-c2ccccc2)cc1)NO" ?
Result: 61

Ask: Give IC50 (Histone deacetylase 3 (Homo sapiens)) of the following molecule: "O=C(CCCCCC(=O)N/N=C/c1ccc(-c2ccncc2)cc1)NO"
Result: 1.8

---

- measured-on: UniProt:Q9UBN7
- Sequence (Q9UBN7 whole entry): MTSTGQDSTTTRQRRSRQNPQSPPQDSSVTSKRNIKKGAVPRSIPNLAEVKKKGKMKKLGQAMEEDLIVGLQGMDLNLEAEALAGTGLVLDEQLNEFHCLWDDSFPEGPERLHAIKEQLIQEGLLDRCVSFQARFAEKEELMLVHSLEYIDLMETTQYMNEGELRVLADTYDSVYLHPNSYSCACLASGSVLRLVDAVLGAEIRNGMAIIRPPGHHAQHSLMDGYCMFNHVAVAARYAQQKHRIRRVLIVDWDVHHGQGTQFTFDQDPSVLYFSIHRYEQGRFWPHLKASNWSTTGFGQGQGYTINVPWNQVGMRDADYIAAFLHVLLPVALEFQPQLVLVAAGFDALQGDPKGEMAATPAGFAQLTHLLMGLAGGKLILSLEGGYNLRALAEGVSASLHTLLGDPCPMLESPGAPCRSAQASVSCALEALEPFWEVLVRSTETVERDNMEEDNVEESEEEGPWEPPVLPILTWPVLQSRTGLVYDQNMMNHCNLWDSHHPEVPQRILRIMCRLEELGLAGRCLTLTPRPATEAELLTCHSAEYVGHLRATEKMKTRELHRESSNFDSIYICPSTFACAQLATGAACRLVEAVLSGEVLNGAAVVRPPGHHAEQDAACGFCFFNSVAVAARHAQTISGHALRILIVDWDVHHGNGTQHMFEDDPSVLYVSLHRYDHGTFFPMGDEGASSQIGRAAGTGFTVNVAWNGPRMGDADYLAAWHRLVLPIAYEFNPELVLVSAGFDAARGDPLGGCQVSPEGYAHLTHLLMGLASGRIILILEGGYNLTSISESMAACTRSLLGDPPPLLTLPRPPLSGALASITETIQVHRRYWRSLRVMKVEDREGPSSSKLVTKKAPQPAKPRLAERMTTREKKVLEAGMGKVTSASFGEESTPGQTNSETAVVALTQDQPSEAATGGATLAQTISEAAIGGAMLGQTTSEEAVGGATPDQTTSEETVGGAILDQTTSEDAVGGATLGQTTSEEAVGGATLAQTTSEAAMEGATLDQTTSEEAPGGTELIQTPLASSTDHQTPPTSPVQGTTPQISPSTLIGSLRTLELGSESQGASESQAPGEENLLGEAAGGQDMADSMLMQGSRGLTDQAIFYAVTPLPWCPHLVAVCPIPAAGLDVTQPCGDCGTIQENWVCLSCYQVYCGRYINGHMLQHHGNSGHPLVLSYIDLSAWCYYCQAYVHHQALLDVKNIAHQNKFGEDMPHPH
- assay-summary: Inhibition of human recombinant HDAC6 using acetyllysine tripeptide coupled with 7-amino-4-methylcoumarin as substrate by fluorescence assay
endpoint-name: IC50 (nM)
The reply should be a number in nM, with the unit left off.

chemical-string	measured-on	IC50 (nM)
O=C(CCCCCC(=O)N/N=C/c1ccc(-c2cccnc2)cc1)NO	UniProt:Q9UBN7	0.5

From here, focus on the item given below.
Ask: // map "O=C(CCCCCC(=O)N/N=C/c1ccc(-c2ccccc2)cc1)NO" to recorded IC50 (system: UniProt:Q9UBN7)
Result: 0.6

---

- assay-summary: Inhibition of HDAC in mouse forebrain primary neurons assessed as acetylation of histone H3K9 after 24 hrs by immunofluorescence assay
pEC50 for assorted compounds
On this scale, pEC50 is minus log10 of a concentration expressed in M (mol/L).

chemical-string	endpoint-name	value
O=C(CCCCCC(=O)N/N=C/c1ccc(-c2cccnc2)cc1)NO	pEC50	6.85

Ask: Requested read-out: pEC50. Entry: "O=C(CCCCCC(=O)N/N=C/c1ccc(-c2ccccc2)cc1)NO"
Result: 6.68

---

- assay-summary: Apparent clearance in C57BL/6 mouse plasma at 25 mg/kg, ip after 0.5 to 24 hrs by LC/MS/MS analysis
- Format: ADME, organism-based
endpoint-name: CL/F (mL/min/kg)
Quick note: give the figure in mL/min/kg, leave out the unit.

Ask: For "O=C(CCCCCC(=O)N/N=C/c1ccc(-c2cccnc2)cc1)NO" , what is its reported CL/F?
Result: 217

---

- assay-summary: Mean Residence time up to the last quantifiable time-point in C57BL/6 mouse plasma at 25 mg/kg, ip after 0.5 to 24 hrs by LC/MS/MS analysis
- Format: ADME, organism-based
endpoint-name: MRT (h)
I only need the number, in h, no unit after it.

Ask: Looking for the measured MRT of "O=C(CCCCCC(=O)N/N=C/c1ccc(-c2cccnc2)cc1)NO" , can you help?
Result: 1.6

---

- assay-summary: Tmax in C57BL/6 mouse plasma at 25 mg/kg, ip after 0.5 to 24 hrs by LC/MS/MS analysis
- Format: ADME, organism-based
endpoint-name: Tmax (h)
Report the figure in h without appending any unit label.

Ask: Tmax lookup needed for "O=C(CCCCCC(=O)N/N=C/c1ccc(-c2cccnc2)cc1)NO" , thanks.
Result: 1

---

- assay-summary: Cmax in C57BL/6 mouse brain at 25 mg/kg, ip after 6 hrs by LC/MS/MS analysis
- Type: ADME, organism-based
- Design: dose 25 mg/kg, route intraperitoneal
endpoint-name: Cmax (nM)
Return type: number; implicit unit nM.

Ask: Which Cmax value belongs to "O=C(CCCCCC(=O)N/N=C/c1ccc(-c2cccnc2)cc1)NO" ?
Result: 13.5

---

- assay-summary: Cmax in C57BL/6 mouse brain at 25 mg/kg, ip after 24 hrs by LC/MS/MS analysis
- Type: ADME, organism-based
- Parameters: dose 25 mg/kg, route intraperitoneal
endpoint-name: Cmax (nM)
Expressed in nM, but write only the number.

Ask: Entry under review: "O=C(CCCCCC(=O)N/N=C/c1ccc(-c2cccnc2)cc1)NO" . Reported Cmax?
Result: 9.73

---

- assay-summary: Cmax in C57BL/6 mouse brain at 25 mg/kg, ip after 2 hrs by LC/MS/MS analysis
- Format: ADME, organism-based
- Design: dose 25 mg/kg, route intraperitoneal
endpoint-name: Cmax (nM)
Field: numeric (nM). Do not append units.

Ask: Given the molecule "O=C(CCCCCC(=O)N/N=C/c1ccc(-c2cccnc2)cc1)NO" , what is its reported Cmax?
Result: 45.2

---

- assay-summary: AUClast in C57BL/6 mouse brain at 25 mg/kg, ip after 0.5 to 24 hrs by LC/MS/MS analysis
- Format: ADME, organism-based
endpoint-name: AUC(0-t) (nM·h)
Numbers only here, please. The scale is nM·h.

Ask: Endpoint output: AUC(0-t) of "O=C(CCCCCC(=O)N/N=C/c1ccc(-c2cccnc2)cc1)NO" . Value?
Result: 120

---

- assay-summary: Cmax in C57BL/6 mouse plasma at 25 mg/kg, ip after 6 hrs by LC/MS/MS analysis
- Assay type: ADME, organism-based
- Set-up: dose 25 mg/kg, route intraperitoneal
endpoint-name: Cmax (nM)
Give the value in nM but do not write nM after it.

Ask: Requested field: Cmax. Item: "O=C(CCCCCC(=O)N/N=C/c1ccc(-c2cccnc2)cc1)NO"
Result: 14.9

---

- assay-summary: AUCinfinity in C57BL/6 mouse plasma at 25 mg/kg, ip after 0.5 to 24 hrs by LC/MS/MS analysis
- Type: ADME, organism-based
- Design: dose 25 mg/kg, route intraperitoneal, time infinity
endpoint-name: AUC(0-inf) (µM·h)
Your answer is read as µM·h, so omit the unit and give the number.

Ask: State the recorded AUC(0-inf) for this entry: "O=C(CCCCCC(=O)N/N=C/c1ccc(-c2cccnc2)cc1)NO"
Result: 5.42

---

- assay-summary: AUClast in C57BL/6 mouse plasma at 25 mg/kg, ip after 0.5 to 24 hrs by LC/MS/MS analysis
- Assay type: ADME, organism-based
endpoint-name: AUC(0-t) (µM·h)
Kindly answer with a numeric value in µM·h, unit omitted.

Ask: Which value of AUC(0-t) has been reported for "O=C(CCCCCC(=O)N/N=C/c1ccc(-c2cccnc2)cc1)NO" in the records?
Result: 5.41
